measurement-description: Half life in male mouse at 5 mg/kg, po
Assay type: ADME, organism-based
condition: in vivo
property-name: half-life (h)
Please respond with the number in h and leave the unit unwritten.

{"structure-smiles": "Nc1cc(F)c(S(=O)(=O)NC2COC2)cc1C(=O)Nc1ccc(F)c(C(F)F)c1", "recorded-result": 0.92}

input: Value lookup for half-life; key = Nc1cc(F)c(S(=O)(=O)N[C@H]2CNC2=O)cc1C(=O)Nc1ccc(F)c(C(F)F)c1
output: 2.8

----------
bioavailability overview
measurement-description: Oral bioavailability in male mouse at 5 mg/kg
Assay type: ADME, organism-based
condition: in vivo
Please respond with the number in % and leave the unit unwritten.

{"structure-smiles": "Nc1cc(F)c(S(=O)(=O)NC2COC2)cc1C(=O)Nc1ccc(F)c(C(F)F)c1", "recorded-result": 66.2}

input: Value lookup for bioavailability; key = Nc1cc(F)c(S(=O)(=O)N[C@H]2CNC2=O)cc1C(=O)Nc1ccc(F)c(C(F)F)c1
output: 26

Value source: ChEMBL document CHEMBL6177968
